ASSAY: in vivo
CONDITION_CONTEXT: female, CD-1, mouse, po, 25 mg/kg, Lung to Plasma ratio Cmax
Ranges used to classify Kp: group A: < 2; group B: ≥ 2 and < 3; group C: ≥ 3

[
  {
    "COMPOUND": "O=[N+]([O-])c1cn2c(n1)OC1(CC1)C(OCc1ccc(OC(F)(F)F)cc1)C2 (stereo not drawn)",
    "LABEL_CLASS": "group A"
  },
  {
    "COMPOUND": "CC[C@H]1Oc2nc([N+](=O)[O-])cn2C[C@@H]1NCc1ccc(OC(F)(F)F)cc1",
    "LABEL_CLASS": "group C"
  },
  {
    "COMPOUND": "CC[C@@H]1Oc2nc([N+](=O)[O-])cn2C[C@@H]1NCc1ccc(OC(F)(F)F)c(F)c1",
    "LABEL_CLASS": "group B"
  }
]

For `O=[N+]([O-])c1cn2c(n1)OC[C@@H](NCc1ccc(OC(F)(F)F)c(F)c1)C2` , which Kp bin applies? group C

For `CC[C@@H]1Oc2nc([N+](=O)[O-])cn2C[C@@H]1NCc1ccc(OC(F)(F)F)cc1` , which Kp bin applies? group A

====

As shown below, each of these compounds has a reported log10(Tmax) value.
ASSAY: in vivo
CONDITION_CONTEXT: female, CD-1, mouse, po, 25 mg/kg
Reminder: these figures are log10 of reported Tmax, in min before transformation.

[
  {
    "STRUCTURE_NOTATION": "CC[C@H]1Oc2nc([N+](=O)[O-])cn2C[C@@H]1NCc1ccc(-c2ccc(OC(F)(F)F)cc2)cc1",
    "log10(Tmax)": 2.68
  }
]

For this compound ( `O=[N+]([O-])c1cn2c(n1)OC[C@@H](NCc1ccc(OC(F)(F)F)c(O)c1)C2` ), measured log10(Tmax) is 0.78

For this compound ( `O=[N+]([O-])c1cn2c(n1)OC[C@@H](NCc1ccc(OC(F)(F)F)c(F)c1)C2` ), measured log10(Tmax) is 1.48

For this compound ( `CC[C@H]1Oc2nc([N+](=O)[O-])cn2C[C@@H]1NCc1ccc(OC(F)(F)F)cc1` ), measured log10(Tmax) is 1.48

For this compound ( `CC[C@@H]1Oc2nc([N+](=O)[O-])cn2C[C@@H]1OCc1ccc(OC(F)(F)F)cc1` ), measured log10(Tmax) is 2.08

For this compound ( `CC[C@@H]1Oc2nc([N+](=O)[O-])cn2C[C@@H]1NCc1ccc(OC(F)(F)F)cc1` ), measured log10(Tmax) is 1.26

For this compound ( `O=[N+]([O-])c1cn2c(n1)OC[C@@H](NCc1ccc(OC(F)(F)F)c(Cl)c1)C2` ), measured log10(Tmax) is 1.48

====

ASSAY: physchem
CONDITION_CONTEXT: pH 6.8, aqueous buffer, thermodynamic from solid
As shown below, each of these compounds has a reported solubility value.

[
  {
    "COMPOUND": "CC[C@@H]1Oc2nc([N+](=O)[O-])cn2C[C@@H]1NCc1ccc(OC(F)(F)F)c(F)c1",
    "solubility": "8 µg/mL"
  },
  {
    "COMPOUND": "O=[N+]([O-])c1cn2c(n1)OC[C@@H](NCc1ccc(OC(F)(F)F)cc1)C2",
    "solubility": "127 µg/mL"
  },
  {
    "COMPOUND": "CC[C@@H]1Oc2nc([N+](=O)[O-])cn2C[C@@H]1NCc1ccc(OC(F)(F)F)cc1",
    "solubility": "12 µg/mL"
  },
  {
    "COMPOUND": "O=[N+]([O-])c1cn2c(n1)OC[C@@H](OCc1ccc(OC(F)(F)F)cc1)C2 [PA-824, reference compound]",
    "solubility": "13 µg/mL"
  },
  {
    "COMPOUND": "O=[N+]([O-])c1cn2c(n1)OC1(CC1)C(OCc1ccc(OC(F)(F)F)cc1)C2 (stereo not shown)",
    "solubility": "26 µg/mL"
  }
]

For this compound ( `O=C(CO[C@@H]1COc2nc([N+](=O)[O-])cn2C1)N1CCN(c2ccc(C(F)(F)F)cn2)CC1` ), measured solubility is 14 µg/mL

For this compound ( `O=[N+]([O-])c1cn2c(n1)OC[C@@H](NCCc1ccc(OC(F)(F)F)cc1)C2` ), measured solubility is 104 µg/mL

====

ASSAY: in vivo
CONDITION_CONTEXT: female, CD-1, mouse, po, 50 mg/kg, Lung to Plasma ratio AUC24
As shown below, each of these molecules has a reported Kp value.
A bare number is all that is needed in reply.

[
  {
    "MOLECULE": "O=C(CO[C@@H]1COc2nc([N+](=O)[O-])cn2C1)N1CCN(c2ccc(OC(F)(F)F)cc2)CC1 [NI-622]",
    "RECORDED_NUMBER": 0.7
  }
]

Turning to the following molecule.
For this molecule ( O=C(CO[C@@H]1COc2nc([N+](=O)[O-])cn2C1)N1CCN(c2ccc(C(F)(F)F)cn2)CC1 [NI-644] ), measured Kp is 0.4

====

ASSAY: in vitro
CONDITION_CONTEXT: human, Caco-2
As shown below, each of these molecules has a reported efflux ratio value.

Here's what some known entries look like.
[
  {
    "MOLECULE": "O=[N+]([O-])c1cn2c(n1)OC[C@@H](OCc1ccc(OC(F)(F)F)cc1)C2 [PA-824, reference compound]",
    "efflux ratio": 0.8
  },
  {
    "MOLECULE": "O=[N+]([O-])c1cn2c(n1)OC[C@@H](NCc1ccc(OC(F)(F)F)c(F)c1)C2",
    "efflux ratio": 0.8
  }
]

Turning to the following molecule.
For this molecule ( `CC[C@H]1Oc2nc([N+](=O)[O-])cn2C[C@@H]1NCc1ccc(OC(F)(F)F)cc1` ), measured efflux ratio is 0.8

====

ASSAY: physchem
MEASURED_PROPERTY: logP

Here's what some known entries look like.
[
  {
    "COMPOUND": "O=[N+]([O-])c1cn2c(n1)OC[C@@H](NCc1ccc(OC(F)(F)F)c(F)c1)C2",
    "logP": 2.6
  },
  {
    "COMPOUND": "CC[C@@H]1Oc2nc([N+](=O)[O-])cn2C[C@@H]1OCc1ccc(OC(F)(F)F)cc1",
    "logP": 3.85
  },
  {
    "COMPOUND": "O=[N+]([O-])c1cn2c(n1)OC1(CC1)C(OCc1ccc(OC(F)(F)F)cc1)C2 (stereo not shown)",
    "logP": 3.2
  }
]

Turning to the following compound.
For this compound ( `CC[C@@H]1Oc2nc([N+](=O)[O-])cn2C[C@@H]1NCc1ccc(OC(F)(F)F)c(F)c1` ), measured logP is 3.5

====

ASSAY: in vivo
CONDITION_CONTEXT: female, CD-1, mouse, po, 25 mg/kg, Lung to Plasma ratio Cmax
MEASURED_PROPERTY: Kp
A bare number is all that is needed in reply.

For this molecule ( O=[N+]([O-])c1cn2c(n1)OC[C@@H](OCc1ccc(OC(F)(F)F)cc1)C2 [PA-824, reference compound] ), measured Kp is 3

For this molecule ( `O=[N+]([O-])c1cn2c(n1)OC[C@@H](NCc1ccc(OC(F)(F)F)c(Cl)c1)C2` ), measured Kp is 4.6

For this molecule ( `CC[C@@H]1Oc2nc([N+](=O)[O-])cn2C[C@@H]1OCc1ccc(OC(F)(F)F)cc1` ), measured Kp is 2.3

For this molecule ( `CC[C@H]1Oc2nc([N+](=O)[O-])cn2C[C@@H]1NCc1ccc(-c2ccc(OC(F)(F)F)cc2)cc1` ), measured Kp is 2.7
